Reported TGI values follow for various molecules
Tested on: UO-31 renal
Assay: NCI tumour cell line growth inhibition, 48 h

{"molecule": "Cc1cc(Nc2ncc3c(n2)N(C)C(=O)N(c2cc(NC(=O)c4cccc(C(F)(F)F)c4)ccc2C)C3)n(C)n1", "TGI": "0.322 µM"}
{"molecule": "CC1=NN(c2ccc(S(=O)(=O)O)cc2)C(=O)/C1=C/c1ccc(Cl)cc1", "TGI": "> 100 µM"}
{"molecule": "OCCCNc1ccnc2cc(Cl)ccc12", "TGI": "> 100 µM"}
{"molecule": "COc1cccc(/C=N/NC(=O)c2ccccc2N2CCCC2)c1O", "TGI": "> 100 µM"}
{"molecule": "Cc1ccc(N=NC(=Nc2ccc(Cl)cc2)c2ccc(N(CCC#N)CCC#N)cc2)cc1", "TGI": "> 100 µM"}
{"molecule": "CC(=O)OCC1OC(n2c3c(cc(C#N)c2=S)CCC3)C(OC(C)=O)C(OC(C)=O)C1OC(C)=O (stereo not given)", "TGI": "> 100 µM"}
{"molecule": "CC1(C)CC(=O)C2=C(C1)NC1=C(C2)C(=O)CC(C)(C)C1", "TGI": "> 100 µM"}
{"molecule": "O=[N+]([O-])c1ccc(Oc2c(Cl)cc(S(=O)(=O)/N=C(\\NO)Nc3ccc(Cl)cc3)cc2Cl)c(Cl)c1", "TGI": "26.5 µM"}
{"molecule": "CN(C)CCCNc1ncnc2c1ncn2C1OC(CO)C(O)C1O (stereo not given)", "TGI": "> 100 µM"}
{"molecule": "CC1=NC2c3c(-c4ccc(Cl)cc4)cn(-c4ccc(C)cc4)c3N=CN2N1 (stereo not given)", "TGI": "> 100 µM"}

---

Test system: SK-OV-3 ovarian
Assay: NCI tumour cell line growth inhibition, 48 h
Reported TGI values follow for various compounds

{"compound": "O=C(/C=C/c1ccc(C(F)(F)F)cc1)c1c([O-])on[n+]1-c1ccccc1", "TGI": "> 63.4 µM"}
{"compound": "OCCCNc1ccnc2cc(Cl)ccc12", "TGI": "> 100 µM"}
{"compound": "O=C(O)c1nc2ccc(C(F)(F)F)cc2nc1NCc1ccc(Cl)c(Cl)c1", "TGI": "38.5 µM"}
{"compound": "COC(=O)c1ccccc1N1C(=O)Cc2ccccc2C1=O", "TGI": "> 100 µM"}
{"compound": "CCNC(=O)Nc1ccc(Oc2ccnc3ccc4c(ccn4C)c23)cc1", "TGI": "56.5 µM"}
{"compound": "COc1cc(/C(=C2/O[C@@H]([C@H]3COC(C)(C)O3)[C@H]3OC(C)(C)O[C@@H]23)c2ccc3ccccc3c2)cc(OC)c1OC", "TGI": "> 100 µM"}
{"compound": "COc1cccc(/C=N/NC(=O)c2ccccc2N2CCCC2)c1O", "TGI": "90.6 µM"}
{"compound": "Cc1[nH]c(=O)[nH]c(=O)c1/C=C/C(=O)NC(CO)CS(=O)Cc1ccccc1 (centres undefined)", "TGI": "> 300 µM"}
{"compound": "CC1=NN(c2ccc(S(=O)(=O)O)cc2)C(=O)/C1=C/c1ccc(Cl)cc1", "TGI": "> 100 µM"}

---

Test system: DU-145 prostate
Experiment: NCI tumour cell line growth inhibition, 48 h
reported_metric: TGI (µM)

{"compound": "O=C(OCc1ccc([N+](=O)[O-])cc1)N1c2ccccc2[C@@]23O[C@]24CCC[C@H]3C#C/C=C\\C#C[C@H]14", "units_label": "µM", "value_comparator": ">", "result_number": 100}
{"compound": "CN(C)CCCCC(C(=O)CBr)(c1ccccc1)c1ccccc1", "units_label": "µM", "value_comparator": "=", "result_number": 3.63}
{"compound": "COc1cc2oc(-c3ccc4c(c3)OCO4)c(OC)c(=O)c2c(OC)c1O", "units_label": "µM", "value_comparator": ">", "result_number": 100}
{"compound": "O=C(O)CCc1nc2ccccc2[nH]1", "units_label": "µM", "value_comparator": ">", "result_number": 100}
{"compound": "Cn1ncc2c(Nc3cccc(Cl)c3)nc(Nc3cccc(Cl)c3)nc21", "units_label": "µM", "value_comparator": "=", "result_number": 40}
{"compound": "O=C(CC(C(=O)c1cccs1)c1ccsc1)c1ccccc1 (stereo unspecified)", "units_label": "µM", "value_comparator": ">", "result_number": 100}
{"compound": "O=C1NC2C(=CC(O)C(O)C2O)c2cc3c(cc21)OCO3 (stereo unspecified)", "units_label": "µM", "value_comparator": "=", "result_number": 1.83}
{"compound": "CCCCCCCCCCCCSC1=C(Cl)C(=O)C(OC)=C(OC)C1=O", "units_label": "µM", "value_comparator": "=", "result_number": 31.5}
{"compound": "CCOC(=O)CCSc1nc2ccc(I)cc2c(=O)n1Cc1ccccc1", "units_label": "µM", "value_comparator": ">", "result_number": 100}
{"compound": "O=C(O)c1nc2ccc(C(F)(F)F)cc2nc1NCc1ccc(Cl)c(Cl)c1", "units_label": "µM", "value_comparator": "=", "result_number": 32.5}
{"compound": "C=C(C)[C@@]1(O)CCCC[C@@H]1CC(Sc1ccccc1)Sc1ccccc1", "units_label": "µM", "value_comparator": "=", "result_number": 30.1}
